// provenance: PubChem BioAssay (NCI)

METHOD: NCI Yeast Anticancer Drug Screen. Data for the mec2-1 strain (AID 157)
MEASUREMENT CONDITIONS: S. cerevisiae mec2-1 strain, at 100.0 µM, stronger effect = higher value
The panel holds about 79,000 compounds, 15% with a hit somewhere; the sample as a whole holds those more often.
Use 30% as the dividing line for growth inhibition, with the line itself on the T side and lower values as F.

The following compounds have reported results that may help.
[[record]]
compound = "Cc1cccc(/C=N/NC(=S)N(C)CCc2ccccn2)n1"
class_assignment = "T"

[[record]]
compound = "O=C(Nc1cccc(C(F)(F)F)c1)Oc1ccc(Cl)cc1C(=O)c1ccccc1"
class_assignment = "T"

[[record]]
compound = "CC(C)(O)c1ccccc1C(c1ccccc1)c1ccccc1"
class_assignment = "F"

[[record]]
compound = "Nc1nc(F)nc2c1ncn2C1OC(COP(=O)(O)O)C(O)C1O (stereo unspecified)"
class_assignment = "T"

[[record]]
compound = "CC1=CCC(C(C)(C)c2ccc(O)cc2)CC1 (stereo unspecified)"
class_assignment = "T"

[[record]]
compound = "CC(=O)[C@]1(O)Cc2c(O)c3c(c(O)c2[C@@H](OC2CC(N)C(O)C(C)O2)C1)C(=O)c1c(OCc2ccccc2)cccc1C3=O (stereo partly specified)"
class_assignment = "F"

[[record]]
compound = "CN(C)CCNc1cccc2sc3ccc(O)cc3c(=O)c12"
class_assignment = "F"

[[record]]
compound = "COc1cc2c(cc1C[N+](C)(C)CSc1ccccc1)-c1ccccc1CC2"
class_assignment = "T"


input: Is growth inhibition for c1ccc2c(c1)ccc1c3ccncc3ccc21 at or above 30%?
output: T

input: Is growth inhibition for O=C1CC(=O)N(C2CCCCC2)C(=O)N1c1ccccc1S(=O)(=O)Oc1ccccc1 at or above 30%?
output: T

input: Is growth inhibition for COc1ccc(N=N/C(=N\NC(=O)c2cc(Br)ccc2O)c2ccc(N(CCC#N)CCC#N)cc2OC)cc1 at or above 30%?
output: T

----------
METHOD: NCI Yeast Anticancer Drug Screen. Data for the mgt1 strain (AID 153)
MEASUREMENT CONDITIONS: S. cerevisiae mgt1 mutant growth inhibition; at 1.2 µM; stronger effect = higher value
Compounds without any hit were thinned out: in the full panel of roughly 79,000, 15% have a hit.
QUANTITY: growth inhibition (%)
Please give a number only; it is taken to be in %.

Observe how each entry below is paired with its result.
[[record]]
compound = "NC(N)=NCCCS(=O)(=O)Nc1ccc(Nc2c3ccccc3nc3cc([N+](=O)[O-])ccc23)cc1"
quantity = "growth inhibition"
unit_text = "%"
recorded_result = -24

[[record]]
compound = "CCOC(=O)C1=C(C)NC(C)=C(C(=O)OCC)C1c1ccccc1Cl"
quantity = "growth inhibition"
unit_text = "%"
recorded_result = 14

[[record]]
compound = "O=C1C=CC(=O)N1c1ccc(N2C(=O)C=CC2=O)cc1"
quantity = "growth inhibition"
unit_text = "%"
recorded_result = 60


input: What value of measured growth inhibition is listed for CN(CC(=O)O)c1ccc(/C=C/c2ccnc3ccccc23)cc1 ?
output: 0

input: What value of measured growth inhibition is listed for Nc1ccc(S(=O)(=O)Nc2ccc(Nc3c4ccccc4nc4ccccc34)cc2)cc1 ?
output: 4

input: What value of measured growth inhibition is listed for CC(=O)O[C@H]1C(=O)[C@@]2(C)[C@H]([C@H](OC(=O)c3ccccc3)[C@]3(O)C[C@H](OC(=O)[C@H](O)[C@@H](NC(=O)c4ccccc4)c4ccccc4)C(C)=C1C3(C)C)[C@]1(OC(C)=O)CO[C@@H]1C[C@@H]2O ?
output: -2
